- Assay method text: protein stability index of a GFP-peptide fusion (GPS, HEK-293T) (PSI 1-6); higher = more stable;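 also: 24-mer peptide tiles fused after GFP, lentivirally expressed, FACS-sorted into six equal bins by GFP/DsRed ratio, decoded by Illumina sequencing, PSI is the read-weighted mean bin number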
- Condition set: treatment: DMSO; c terminus: a fixed tail appended
protein stability index vs 3: at or above is 1.0, below is 0.0.

{"columns": ["Sequence chain", "Label value"],
 "data": [
  ["MFSFNMFDHPIPRVFQNRFSTQYR [UFD1]", 0.0],
  ["QNFLDPGYPLPKLDMNFSLENREE [ZNF449]", 1.0],
  ["SVVSYTLKDIHDDQDYLHSLGKAR [FLOT1]", 1.0],
  ["RVEFPRSGRGTGRGGGGGGGGGAP [SRSF1]", 1.0],
  ["KIGFEIGIENEEDTSKQKKMETMY [ZNF449]", 1.0],
  ["VNRKSVKGNTALHDCAESGSLDIM [FEM1C]", 1.0],
  ["MSVAIRKRSWEEHVTHWMGQPFNS [DLC1]", 0.0],
  ["GELEDESLNRACHQQNKIKDLQKE [CEP70]", 1.0],
  ["FRNCGACVTLMQGHEGSVSSCHFA [WDR88]", 0.0],
  ["LQDVRVNQSRCEMKTFVSPEAISP [TRIM15]", 1.0],
  ["KALAIILHLLYLLEKVECTPSQEH [FEM1A]", 0.0],
  ["ARIRSHSWLESCIVGWRCRVGQWV [GMPPB]", 0.0],
  ["MSELFLHTPSDTGVSFQAISSMAD [PKD2L1]", 1.0],
  ["ETVADVRTLPNASTVDNIRSIFGN [MLH1]", 1.0],
  ["KPILLHQVEALAAAGVDHVILAVS [GMPPB]", 0.0],
  ["QLLSAMGSLCSLWFGASVLSLLEL [SCNN1D]", 1.0],
  ["SSEKKRQSSADGSQPPKKKPKTTN [RBBP5]", 1.0],
  ["LVKDNPQRSYFLRIFDIKDGKLLW [WASL]", 0.0],
  ["NKINAGMYILSPAVLRRIQLQPTS [GMPPB]", 0.0],
  ["TQMIREGGARSLWRGNGINVLKIA [SLC25A25]", 0.0],
  ["DWMAAMFGGPFVESSTREVVFPYT [RHOBTB2]", 0.0],
  ["PDGKEMAEEYDEKTSELLVRKWRV [DPCD]", 1.0],
  ["KYNHAACFGLQPGCLLPDGSRMMA [NLN]", 0.0],
  ["VTVKDETATMKDLEAEVKDTTRVE [R3HDM1]", 1.0],
  ["FWNSPSSPSSSAASSSSPSSSSAV [RHOBTB2]", 1.0]
]}

* * *

- Assay method text: protein stability index of a GFP-peptide fusion (GPS, HEK-293T) (PSI 1-6); higher = more stable
- Condition set: treatment: DMSO; c terminus: a fixed tail appended
Class class 1: protein stability index at least 4. Class class 0: protein stability index below 4.

{"columns": ["Sequence chain", "Label value"],
 "data": [
  ["LCEPDPVHFSEAIEKFIREPSLKA [ALG2]", "class 0"],
  ["VDEKGEKVRPSHKRCIVILREIPE [LARP4]", "class 0"],
  ["GEGKLSKRLKHKDDSVMKATQQAR [C22orf31]", "class 1"],
  ["ATNQCTIDKNRRKSCQACRLRKCY [ESR2]", "class 0"],
  ["GAAAPATPTPVAAALDACSGNDPF [SNAP91]", "class 1"],
  ["PGLSQGPGKETLESALIALDSEKP [EHMT1]", "class 1"],
  ["MAGAIAQGLIRAGKVEAQHILASA [PYCR3]", "class 0"],
  ["LQTLLYFLSDVTAAVKENQMTPTN [DLC1]", "class 0"],
  ["QVAKTKQQIEEQRVQVQVVERAQQ [FLOT1]", "class 1"],
  ["QSLPKASPVTTSPTAATTQNPVLS [LCOR]", "class 1"],
  ["DQDYLHSLGKARTAQVQKDARIGE [FLOT1]", "class 1"],
  ["QALAGASSGRELGRPKELQPKKLH [ZNF263]", "class 1"]
]}

* * *

- Assay method text: protein stability index of a GFP-peptide fusion (GPS, HEK-293T) (PSI 1-6); higher = more stable
- Condition set: treatment: DMSO; c terminus: a fixed tail appended
Label true (1) when protein stability index is at or above 3; anything below gets false (0).

{"columns": ["Sequence chain", "Label value"],
 "data": [
  ["FRSRSRLTHLSLSRRASESSLSSE [CDC25B]", "true (1)"],
  ["KHGSLNRYHNSHPLRERARKLSQG [YJU2B]", "true (1)"],
  ["QEAMKRLRGAKAFRLPGLSRRERE [FCHO1]", "true (1)"],
  ["TSTGSAASSGSNSSASSEQGLLGR [SPRY1]", "true (1)"],
  ["EDDRDGLLAEREQEEAIAQFPYVE [TMEM106C]", "true (1)"],
  ["RQTKKMFCDMDKSLLCLLCSNSQE [TRIM43]", "false (0)"],
  ["LGKITFIRNSRPLVKKVEEDEAGG [UFD1]", "true (1)"],
  ["ETLQPSVWFGGREHVLMFAKLALY [TMEM175]", "false (0)"],
  ["TLYTAKKYAVPALEAHCVEFLTKH [BTBD1]", "false (0)"],
  ["ILTIICYLGLPRLEFYRYYQQLKL [SLC29A1]", "true (1)"],
  ["KRESFLKYKCLLQQLYYTEADYED [IQUB]", "false (0)"],
  ["VPVLKPMDLMVEVSPRRIFANGHT [PPP2R2C]", "false (0)"],
  ["SAGEQKTERMDKVGDALEEVLSKA [GADD45A]", "true (1)"],
  ["MSIHIVALGNEGDTFHQDNQPSGL [RHOBTB3]", "false (0)"],
  ["LLLLDLLALYTPVGAAGSARQELL [ANKRD9]", "false (0)"],
  ["LIQDSPDSSTSPKGKQPTSAENSV [NANOGP8]", "true (1)"],
  ["LKGTLVSTLKEVKPTVFIGVPQIW [ACSBG2]", "false (0)"],
  ["LPRRDFQRQVWLLFEYPESSGPAR [KCNA3]", "false (0)"],
  ["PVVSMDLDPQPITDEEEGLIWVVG [PTPRD]", "true (1)"],
  ["SRTCIGSSHSRGPLSWAPCGPIAG", "false (0)"],
  ["VPQRTAGGDVPERELYIRWLEVAA [MYORG]", "false (0)"],
  ["ETIKCVVVGDNAVGKTRLICARAC [RHOBTB1]", "false (0)"],
  ["LLDGLARRVGILGEELADVGGVLR [SCARA5]", "false (0)"],
  ["SKSTQFEYAWCLVRSKYNDDIRKG [FIS1]", "false (0)"],
  ["LDPWFAGSSNVGINRWRFLLQCLE [CRY1]", "false (0)"],
  ["PPKQAQKEQRKQMKGRGQLEKPPA [TBC1D10A]", "true (1)"]
]}

* * *

- Assay method text: protein stability index of a GFP-peptide fusion (GPS, HEK-293T) (PSI 1-6); higher = more stable
- Condition set: treatment: MLN4924 1 uM, 8 h; c terminus: a fixed tail appended
Assay readout: protein stability index

{"columns": ["Sequence chain", "Reading"],
 "data": [
  ["MASRAGPRAAGTDGSDFQHRERVA [JAGN1]", 4.7],
  ["LPVGTQLLTVTATDRDEGANGEVT [PCDHGA10]", 5.4],
  ["PPGPDRLPSNLVQYYDDEKKTWKI [KLHL14]", 4.7],
  ["RQVNIRTANCTTANQNCVNKSKLL [KCNA1]", 3.48],
  ["SRTCIGSSHSRGPLSWAPCGPIAG", 2.84],
  ["SKKLRAILPKQSRKSMLDAGPDSW [LCOR]", 3.03],
  ["RTRTATMLCAASGNPDPEITWFKD [PTPRD]", 3.72],
  ["TQMIREGGARSLWRGNGINVLKIA [SLC25A25]", 2.77],
  ["LLEGTPSSASEGDEDLRRQMQDDE [PALM]", 5.49],
  ["LQKLLSGRSREELDELTGEVAGGG [FEM1A]", 4.71],
  ["MAYDQFLAICRPLTYSTRMSQTVQ [OR3A1]", 2.21],
  ["YQTEQSLRLLVESDINSIRRILDE [KRT34]", 2.97],
  ["VQILCHTYWEHWTSQGQVRMRLFG [RTP4]", 2.52],
  ["LPPEKGREVAKELGLPYYETSVFD [RHOBTB1]", 3.8],
  ["LENELDLKLVSFSKLCTSYSHSST [GOSR1]", 2.93],
  ["APALPPGGTDPHGYHQVPGSAAPG [FOXJ1]", 5.38],
  ["AQEALREKAAALERQLKVMASDHR [LRRC45]", 4.29],
  ["EKDWGLEGYVWRGSQLEDQALRGL [ZSWIM9]", 3.62],
  ["DPAYIAVLVLIFNAAKTCPTMPAL [INTS4]", 3.09],
  ["AQTIPTKDRLEGLLAFKEKRPPRY [AUH]", 4.06],
  ["PPPPPKEGHQEGLVELPASFRELL [SCNN1D]", 4.29],
  ["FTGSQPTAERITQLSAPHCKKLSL [ALDH8A1]", 3.46],
  ["ITWIAGAVTKDFKLTDKHETVVSY [ACSBG2]", 2.03],
  ["SQAQETTIIASNAEEAEILHSACG [TOR1AIP2]", 5.21],
  ["KIGFEIGIENEEDTSKQKKMETMY [ZNF449]", 4.07],
  ["DGITNGASWYSLSKGMQDFNYLHT [CPN1]", 2.43],
  ["VRVALDYEAGQVTLHNAQTQEPIF [TRIM15]", 2.51]
]}
